This collection of values is drawn from patent US20020048549A1.

- Assay Notes: Biodistribution of 99mTc(N)(X)(DTC)+ heterocomplexes in rats
- Assay type: in vivo, male Spraque-Dawley rats (SD rats)
- Setup Conditions: 30 min after injection
Observable: Intestine % dose/g (% dose/g)
Answer with a number only, understood to be in % dose/g.

# Compound, Test Value
records = [
    ("CCCN1CC[P+](c2ccccc2)(c2ccccc2)[99Tc-2]2(#[N])([NH]N(C)C(SC)=[S+]2)[P+](c2ccccc2)(c2ccccc2)CC1 [^99mTc(N)(PNP1)(DTC)^+]", 1.107),
    ("COCCC[P]1(CCCOC)CCN(CCOC)CC[P](CCCOC)(CCCOC)[99Tc+]12(#[N])[NH]N(C)C(SC)=[S]2 [^99mTc(N)(PNP3)(DTC)^+]", 10.201),
]

Value lookup for Intestine % dose/g; key = COCCN1CC[P+](c2ccccc2)(c2ccccc2)[99Tc-2]2(#[N])([NH]N(C)C(SC)=[S+]2)[P+](c2ccccc2)(c2ccccc2)CC1 [^99mTc(N)(PNP2)(DTC)^+]
7.254

Follow-up entry: CSC1=[S+][99Tc-2]2(#[N])([NH]N1C)[P+](c1ccccc1)(c1ccccc1)CCOCC[P+]2(c1ccccc1)c1ccccc1 [^99mTc(N)(POP)(DTC)^+]
0.64
